Quick reference: emission maximum of the listed items.
- Assay Text: solvent given as SMILES
- Condition: in CCCCCCCCO
// note: answer is a bare numeric in nm

Known emission maximum results, listed for orientation:
{"Sample Smiles": "C=Cc1ccc(-c2ccc(-c3nnc(-c4ccc(-c5nnc(-c6ccc(-c7ccc(C=C)cc7)s6)o5)cc4)o3)s2)cc1", "Experimental Value": 400}
{"Sample Smiles": "CN(C)c1ccc(/C=C/c2cc[n+](Cc3cc(C[n+]4ccc(/C=C/c5ccc(N(C)C)cc5)cc4)cc(C[n+]4ccc(/C=C/c5ccc(N(C)C)cc5)cc4)c3)cc2)cc1", "Experimental Value": 595}
{"Sample Smiles": "CC1=CC(C)=[N+]2C1=Cc1c3ccccc3c(C#Cc3ccsc3)n1[B-]2(F)F", "Experimental Value": 621}
{"Sample Smiles": "CCCCCCCCCCCCCCCCN(CCCCCCCCCCCCCCCC)c1ccc(/C=C/c2cc[n+](Cc3cc(C[n+]4ccc(/C=C/c5ccc(N(CCCCCCCCCCCCCCCC)CCCCCCCCCCCCCCCC)cc5)cc4)cc(C[n+]4ccc(/C=C/c5ccc(N(CCCCCCCCCCCCCCCC)CCCCCCCCCCCCCCCC)cc5)cc4)c3)cc2)cc1", "Experimental Value": 589}

// next entry
The reported value for `CN(C)c1cc(C#N)c(N(C)C)c(C#N)c1` in terms of emission maximum is 523.29

###

- Assay Text: solvent given as SMILES
- Condition: in CC#N
Classification field: enter met for emission maximum values not below 500 nm, not met for values below it.

Worked cases, answers included:
{"Compound": "Cc1cc(O)c(C(C)C)cc1/N=C/c1ccc(C(F)(F)F)cc1", "Class Name": "not met"}
{"Compound": "CCCCC1(c2ccccc2)Nc2c(-c3ccc(N(c4ccccc4)c4ccccc4)cc3)ccc(-c3ccc(N(c4ccccc4)c4ccccc4)cc3)c2N=C1c1ccccc1 (configuration not stated)", "Class Name": "met"}
{"Compound": "C1=C(c2ccc(-c3cccs3)s2)CCC1", "Class Name": "not met"}
{"Compound": "COc1cc(C#Cc2ccccc2)c(C#Cc2ccccc2)cc1OC", "Class Name": "not met"}

Say whether `Nc1ncnc2c1c(-c1ccc3ccccc3c1)nn2[C@H]1C[C@H](O)[C@@H](CO)O1` shows emission maximum of 500 nm or more.
not met

Threshold query (emission maximum >= 500 nm) on `O=[N+]([O-])c1ccc(NCCN(Cc2c3ccccc3cc3ccccc23)c2ccc([N+](=O)[O-])cc2[N+](=O)[O-])c([N+](=O)[O-])c1`
not met

Hi, just wondering whether `c1ccc(-c2nc3c(c4c2-c2ccccc2CC4)-c2ccccc2CC3)cc1` shows emission maximum of 500 nm or higher.
not met

###

- Assay Text: solvent given as SMILES
- Condition: in CN(C)C=O
# emission maximum annotations
Report only the number, with the unit nm understood.

{"Sample Smiles": "N#C/C(=C\\c1ccc(C#N)cc1)c1nc(-c2ccccc2)cs1", "Measurement Units": "nm", "Experimental Value": 507}
{"Sample Smiles": "CCN(CC)c1ccc2c(-c3ccc(S(=O)(=O)O)cc3S(=O)(=O)[O-])c3ccc(=[N+](CC)CC)cc-3oc2c1", "Measurement Units": "nm", "Experimental Value": 576}
{"Sample Smiles": "N#Cc1cccc2c(N)c(-c3nn([C@H]4C[C@H](O)[C@@H](CO)O4)c4ncnc(N)c34)ccc12", "Measurement Units": "nm", "Experimental Value": 524}
{"Sample Smiles": "CCOc1cc2c(cc1/C=C/C(=C(C#N)C#N)c1ccccc1)c1ccccc1n2CC", "Measurement Units": "nm", "Experimental Value": 573}

Continue with the compound presented below.
For reference, reported emission maximum for `O=C1/C(=C\c2ccc(N(c3ccccc3)c3ccccc3)cc2)S(=O)(=O)c2ccccc21` stands at 520

###

Quick reference for emission maximum among some molecules
- Assay Text: solvent given as SMILES
- Condition: in ClCCl
Please reply with the bare figure in nm and do not write the unit itself.

{"Sample Smiles": "c1ccc(-c2cc3cc4cccc5c(-c6ccccc6)cc6cc7cccc2c7c3c6c45)cc1", "Measurement Units": "nm", "Experimental Value": 442}
{"Sample Smiles": "CC(C)[Si]1(C(C)C)c2cc(C=O)ccc2-c2ccc(N(C)C)cc21", "Measurement Units": "nm", "Experimental Value": 501}

Per the records, this molecule ( `COC(=O)c1c(-c2cc3ccccc3oc2=O)nn(-c2cccc(F)c2)c1C(=O)OC` ) has emission maximum equal to 402

Notebook: `Cc1cc(-c2ccc(C(C)(C)C)cc2)cc(C)[o+]1` , emission maximum read as 417

###

- Assay Text: solvent given as SMILES
- Condition: in c1ccccc1
Quantity Name: emission maximum (nm)
Number only, in nm; omit the unit.

{"Sample Smiles": "CC(C)[Si]1(C(C)C)c2cc(N(C)C)ccc2-c2ccc(C(F)(F)F)cc21", "Measurement Units": "nm", "emission maximum": 410}

For `CN(C)c1ccc(/C=C/C(=O)O)cc1` the compound record lists emission maximum as 416

# emission maximum (compound: `CC(C)[Si]1(C(C)C)c2cc(C=O)ccc2-c2ccc(N(C)C)cc21` ) is 450

###

- Assay Text: solvent given as SMILES
- Condition: in ClC(Cl)Cl
Hi! Could you tag entries with emission maximum below 600 nm as YES, and those at or above as NO? Much appreciated.

These solved cases illustrate the format of a correct answer.
{"Sample Smiles": "Fc1ccc(-c2nc3n(c2-c2ccncc2)CCS3)cc1", "Class Name": "YES"}
{"Sample Smiles": "C=Cc1ccc(-c2ccc(-c3nnc(-c4ccc(-c5nnc(-c6ccc(-c7ccc(C=C)cc7)s6)o5)cc4)o3)s2)cc1", "Class Name": "YES"}
{"Sample Smiles": "COc1ccc(C2=[N+]3C(=Nc4c(-c5ccccc5)c(Br)c(-c5ccc(OC)cc5)n4[B-]3(F)F)C(c3ccccc3)=C2Br)cc1", "Class Name": "NO"}
{"Sample Smiles": "COc1ccc(-c2cc3c(o2)=CC2=Cc4cc5oc(-c6ccc(OC)cc6)cc5n4[B-](F)(F)[N+]=32)cc1", "Class Name": "NO"}

Consider now this further compound.
Confirm or reject: emission maximum of `COc1ccc2cc(-c3ccc([N+](=O)[O-])cc3)ccc2c1` lies strictly below 600 nm
YES

###

- Assay Text: solvent given as SMILES
- Condition: in ClCCl
Quantity Name: emission maximum (nm)
Unit nm implied. Number only.

Please review the entries below; each comes with its answer.
{"Compound": "O=P1(c2ccccc2)c2ccccc2-c2sc3ccccc3c21 (centres undefined)", "Measurement Units": "nm", "emission maximum": 428}
{"Compound": "CC(C)[Si]1(C(C)C)c2cc(C#N)ccc2-c2ccc(N(c3ccccc3)c3ccccc3)cc21", "Measurement Units": "nm", "emission maximum": 470}
{"Compound": "CCCCCCn1c(=O)c2c3oc4ccccc4oc3c3c(=O)n(CCCCCC)c(=O)c3c2c1=O", "Measurement Units": "nm", "emission maximum": 487}

Now consider a different compound.
Value of measured emission maximum for the entry `CC(C)(C)c1ccc2c(c1)c1cc(C(C)(C)C)ccc1n2-c1ccc(C#Cc2cccc(C#Cc3ccc(-n4c5ccc(C(C)(C)C)cc5c5cc(C(C)(C)C)ccc54)cc3)c2)cc1` : 416

###

- Assay Text: solvent given as SMILES
- Condition: in c1ccccc1
Reported emission maximum values are given for each entry in this list.
Write the value in nm as a bare number.

{"Compound": "O=C1OC(=O)c2ccc(N(c3ccccc3)c3ccc4ccc5cccc6ccc3c4c56)c3cccc1c23", "Measurement Units": "nm", "emission maximum": 605}
{"Compound": "COc1ccc2c(=O)c3c([nH]c2c1)-c1cc(Cl)ccc1NC3(C)C", "Measurement Units": "nm", "emission maximum": 478}
{"Compound": "O=C1c2ccccc2NC(c2ccccc2)N1Cc1ccccc1 (stereo not drawn)", "Measurement Units": "nm", "emission maximum": 393}
{"Compound": "Cc1ccc(-c2cc(-c3ccccc3)c3c(N)nc(N4CCCC4)c(C#N)c3n2)cc1", "Measurement Units": "nm", "emission maximum": 504}
{"Compound": "CCCCN(CCCC)c1ccc2c(c1)C#CC#Cc1cc(C(F)(F)F)ccc1C#Cc1cc(c3cc1C#Cc1ccc(N(CCCC)CCCC)cc1C#CC#Cc1cc(C(F)(F)F)ccc1C#C3)C#C2", "Measurement Units": "nm", "emission maximum": 522}
{"Compound": "CCCCN(CCCC)c1ccc(C#Cc2cc(C#Cc3ccc(N(CCCC)CCCC)cc3)c(C#Cc3ccc(C(F)(F)F)cc3)cc2C#Cc2ccc(C(F)(F)F)cc2)cc1", "Measurement Units": "nm", "emission maximum": 493}

So, `COc1ccc(C(=O)/C=C/c2ccc(N(C)C)cc2)cc1OC` ? Its emission maximum was 470

compound `CC1(C)CC(/C=C/c2ccc(-n3cncn3)cc2)=CC(=C(C#N)C#N)C1` , emission maximum observed: 511
